B1: Homeobox protein SIX6, residues 134 to 184; numbered along this chain, O95475 (parent)
chain: CFKERTRHLLREWYLQDPYPNPSKKRELAQATGLTPTQVGNWFKNRRQRDR

# Variants of: B1
# EXPERIMENTAL_DETAILS: abundance fitness (aPCA) (normalised: wild type 0, dead -1); higher = more abundant; growth selection in yeast, the domain comes from the species named
# CONDITION_SET: Homo sapiens
ASSAY_READOUT: abundance fitness

Any idea what its abundance fitness is? The variant is CFKERTRHLLREWYLQDPYPNWSKKRELAQATGLTPTQVGNWFKNRRQRDR [P22W]
-0.281

Please give the result for CFKERTRHLLREWYLQDPYPNPSPKRELAQATGLTPTQVGNWFKNRRQRDR [K24P] too.
-0.864

Please give the result for CFKERTRHLLREWYLQDPYPNPSKKRELAQATPLTPTQVGNWFKNRRQRDR [G33P] too.
-0.848

Please give the result for CFKERTRHLLREWYLQDPYPNPSKKRELAQATGLTPTQVGNPFKNRRQRDR [W42P] too.
-0.983

Please give the result for CFKERTRHLLREWYLQDPYPNPSKKRELAQATGLTPTQVGNWFKNRRQRLR [D50L] too.
-1.1

Please give the result for CFKERTRHLLREWYLQDPYPNPSKKRELAQATGLTPTQVGNWFKNRRQADR [R49A] too.
-0.278

Please give the result for CFKERTRHLLREWYLQDPYPNPSKKRELAQATGLTPLQVGNWFKNRRQRDR [T37L] too.
-0.197

Please give the result for CFKERTRHLLREWYLQDPYPNPSKKRELAQATGLTPTQQGNWFKNRRQRDR [V39Q] too.
-0.455

Please give the result for CFKERTRHLLREWYLQDPYENPSKKRELAQATGLTPTQVGNWFKNRRQRDR [P20E] too.
-0.969

Please give the result for CFKERTRHLLREWYLQDPYPNSSKKRELAQATGLTPTQVGNWFKNRRQRDR [P22S] too.
0.015

Please give the result for CFKERTRHLLREWYLQDPYPNPSKKRELAQATGTTPTQVGNWFKNRRQRDR [L34T] too.
-0.669

Please give the result for CFKERTRHLLREWYLQDPYPNPSKKRELAQATGLTPTQVGNWFKNRYQRDR [R47Y] too.
-0.637

Please give the result for CFKERTRHLLREWYLQDPYPNPSKKRELAQATGLTPTQLGNWFKNRRQRDR [V39L] too.
-0.769

Please give the result for CFKERTRHLLREWYLQDPQPNPSKKRELAQATGLTPTQVGNWFKNRRQRDR [Y19Q] too.
-0.414

Please give the result for CFKERTRHLLREWYLQDPYPNPSKKRELAQATGLTPTQVGNWFMNRRQRDR [K44M] too.
-0.204
